system: NCI-H23 lung; assay: NCI tumour cell line growth inhibition, 48 h
Provide the reported TGI of each item.

[in] Kindly indicate its recorded TGI. Item: OC[C@@H]1CC#C/C=C\C#CC[C@@H]1CO
[out] > 100 µM

[in] Output TGI of Cc1ccc(C(=Nc2ccccc2)N=P(c2ccccc2)(c2ccccc2)c2ccccc2)cc1
[out] 12.5 µM

[in] Give the measured TGI for O=c1[nH]c2nc3ccccc3n2c(O)c1-c1ccccc1
[out] > 100 µM

[in] Return TGI (reported value) for this compound: Cc1ccc(/C=C2\COc3ccc(O)c(O)c3C2=O)cc1
[out] 3.8 µM

[in] Report measured TGI; entry is O=C(NCc1ccccc1)c1cc2ccccc2oc1=Nc1ccccc1F
[out] 57.5 µM

[in] Look up TGI of C=C(C)c1ccccc1 (tested in a mixture with another compound) and report it.
[out] > 100 µM

[in] Give the value of TGI reported for the following: COc1oc(C(=O)NC2CCCCC2)c(-c2ccc(Cl)cc2)c1S(=O)(=O)c1ccccc1
[out] > 25.5 µM

[in] Using known records, supply TGI for CCc1ccccc1NC(=O)C1=C(C)NC(C)=C(C(=O)Nc2ccccc2CC)C1c1cccc([N+](=O)[O-])c1
[out] > 100 µM

[in] Dear colleague, please send me the reported TGI for O=c1[nH]nc(Cc2ccccc2)n1/N=C/c1ccc(/C=N/n2c(Cc3ccccc3)n[nH]c2=O)cc1 when you can.
[out] > 100 µM

[in] // Input: CCOc1ccccc1N1CSc2nnc(-c3ccccc3)n2C1 . Output its TGI only.
[out] > 100 µM

[in] Answer with the recorded TGI for the compound listed here: O=[N+]([O-])C(=C1NCCN1)C(Cl)=C(Cl)Cl
[out] > 100 µM

[in] Return TGI (reported value) for this compound: Cc1cc2c(cc1C)[n+](=O)c(C(=O)C(C)(C)C)c(C(F)(F)F)n2[O-]
[out] 47.6 µM

[in] Supply reported TGI belonging to this compound: Cc1ccc(S(=O)(=O)NNC(=O)Nc2ccc(Cl)cc2)cc1
[out] > 100 µM

[in] Report measured TGI; entry is CCCCCCCCCCCCCCCCSC(=NCC)NCC
[out] 4.99 µM

[in] Supply TGI value. Item: OC1c2c(ccc3c2CCC3)CC12Cc1ccccc1C2 (configuration not stated)
[out] 30.9 µM

[in] Give the measured TGI for COc1ccc2c(c1)OCC1Cc3cc4c(cc3OC21)OCO4 (configuration not stated)
[out] > 100 µM

[in] Output TGI of [N-]=[N+]=NC1=C(C(=O)c2ccccc2)C(=O)c2cccc3cccc1c23
[out] > 100 µM

[in] Output TGI of O=C(O)c1ccc(Cc2ccccc2C(=O)O)cc1
[out] > 100 µM

[in] Look up and report measured TGI for this entry: Cc1ccc(S(=O)(=O)n2cc(/C=C/C#N)c(/C=C/C#N)c2)cc1
[out] > 100 µM

[in] Supply measured TGI of COc1ccc(-c2cc(=O)c3cc(C)cnc3[nH]2)cc1 in your reply.
[out] > 100 µM

[in] For the compound S=c1sc2c(s1)SCc1cccc(n1)CSc1sc(=S)sc1SCc1cccc(n1)CS2 , report TGI.
[out] > 100 µM

[in] Item O=C1/C(=C/c2ccc(O)c(CN3CCCCC3)c2)CCC/C1=C\c1ccc(O)c(CN2CCCCC2)c1 : provide TGI
[out] 20.2 µM

[in] Return value of TGI for input Cc1cccc2c1CC1(Cc3ccccc3C1=O)C2=O (configuration not stated) , no commentary.
[out] > 100 µM

[in] Tell me measured TGI for CN(C)c1ccc(C2SCC(=O)N2c2nc3cc4sc(N5C(=O)CSC5c5ccc(N(C)C)cc5)nc4cc3s2)cc1 (configuration not stated) please.
[out] > 100 µM

[in] Give me measured TGI, please, for this compound: Cc1cc(C(=O)CBr)c(CN2C(=O)c3ccccc3C2=O)c(=O)n1C
[out] > 100 µM

[in] Give reported TGI value for OCc1cn(Cc2ccc(Cl)cc2)c2ccccc12
[out] 21.1 µM

[in] Assign TGI to the following record: CC(C)Oc1c(N(Cc2ccccc2)c2ccccc2C2SCCCS2)c(=O)c1=O
[out] > 47.5 µM

[in] Check the records and state TGI for CN(C)c1ccc(C(C#N)NNC(=O)Cc2ccccc2)cc1 (configuration not stated)
[out] > 100 µM

[in] In one line, give reported TGI of the entry COP(=O)(CC(=O)C1OC(C)(C)OC1C(O)COCc1ccccc1)OC (configuration not stated) .
[out] > 100 µM

[in] Indicate its recorded TGI; the compound in question is COc1cc(-c2nc3nc(N4CCN(C)CC4)ccc3[nH]2)c(OC)c2[nH]c(CO)nc12
[out] > 100 µM

[in] // Input: CN(C)C(=O)N(CCCl)N=O . Output its TGI only.
[out] > 100 µM

[in] Find the measured TGI of Cc1cc(C)c2ccc(N3CCNCC3)nc2n1 and report it.
[out] > 100 µM

[in] Give a short answer stating reported TGI for CCCCN(CCCC)CC(C(=O)Nc1ccccc1)/C(C)=N\NC(=O)c1ccncc1 (configuration not stated) .
[out] > 100 µM

[in] Recall and state the measured TGI for Cn1c(-c2ccccc2)c2cc3nc4ccccc4nc3cc2c1-c1ccccc1 .
[out] 44.1 µM

[in] Hello, please tell me recorded TGI for this one: N#CCC(=O)N/N=C(\CCN1CCCC1)CC(c1ccccc1)c1c(O)c2ccccc2oc1=O (configuration not stated)
[out] > 100 µM

[in] Recall and state the measured TGI for C[C@H](NC1=CC(=O)C(N[C@@H](C)[C@H](O)c2ccccc2)=CC1=O)[C@H](O)c1ccccc1 .
[out] > 100 µM

[in] Report TGI for CCOC(=O)c1nnsc1NC(=O)NCCCCCCn1c(=O)n(CCCCCCNC(=O)Nc2snnc2C(=O)OCC)c(=O)n(CCCCCCNC(=O)Nc2snnc2C(=O)OCC)c1=O
[out] 90.4 µM

[in] Output TGI of Cc1[nH]c(-c2ccccc2)c(O)c1C(=O)OC12CC3CC(CC(C3)C1)C2
[out] 31.6 µM

[in] Please list TGI recorded for the compound C#CCCCC(=C)C[C@@H]1OC(=O)[C@H](C)[C@@H]1O
[out] > 100 µM

[in] Respond only with TGI recorded for COc1ccc(-c2nn(C(=O)NCCN(C)C)cc2-c2ccncc2)cc1Cl
[out] 60.7 µM

[in] Output measured TGI for this item: OCCN(CCO)CCn1cnc2c(NCc3ccccc3)ncnc21
[out] > 100 µM

[in] For the compound NC(=Nc1ccc(S(=O)(=O)Nc2cnc3ccccc3n2)cc1)/N=C(/N)Nc1ccc(Br)cc1 , give its measured TGI value.
[out] > 100 µM
